I'd be grateful if you could share measured MIC for these entries.
# Tested on: K. pneumoniae A-15130
Answers are plain numbers, in µg/mL.

Solved cases (3 shown):
[
  {
    "molecule": "O=C([O-])C1=C(Cc2ccco2)S[C@@H]2CC(=O)N12.[Na+]",
    "MIC / µg/mL": 32
  },
  {
    "molecule": "O=C(O)C1=C(Cn2cnnn2)SC2CC(=O)N12 (centres unmarked)",
    "MIC / µg/mL": 63
  },
  {
    "molecule": "NCC1=C(C(=O)O)N2C(=O)CC2S1 (centres unmarked)",
    "MIC / µg/mL": 8
  }
]

Now for the molecule whose MIC we want.
QUERY: // query MIC value for entry NCc1ccc(CC2=C(C(=O)O)N3C(=O)CC3S2)cc1 (centres unmarked)
RESULT: 32

All values here come from patent US4272437A.
